This collection of values is drawn from patent EP4635949A1.

// reported Cmax for each item listed
procedure details: in vivo
condition notes: male, SD, rat, plasma, iv, 1 mg/kg
Respond with the bare value in ng/mL.

compound: COc1ccc(C(=O)N2CC3C=C(c4nc(C)cnc4OC)CC3C2)c(-n2nccn2)c1 (centres unmarked) [Compound 41]
endpoint: Cmax
readout units: ng/mL
readout value: 706

compound: Cc1nc(C2=CC3CN(C(=O)c4ccc(F)cc4-n4nccn4)CC3C2)nc(C)c1F (centres unmarked) [Compound 2]
endpoint: Cmax
readout units: ng/mL
readout value: 1880

compound: Cc1nc(C2=CC3CN(C(=O)c4c(F)cccc4-n4nccn4)CC3C2)nc(C(C)(C)O)c1F (centres unmarked) [Compound 37]
endpoint: Cmax
readout units: ng/mL
readout value: 980

[in] Quick one: Cmax of COc1ccc(C(=O)N2CC3C=C(c4nc(C)cnc4OC)CC3C2)c(-c2ncccn2)c1 (centres unmarked) [Compound 48] ?
[out] 3310

[in] Quick one: Cmax of COc1ncc(C)nc1C1=CC2CN(C(=O)c3ccc(F)cc3-n3cccn3)CC2C1 (centres unmarked) [Compound 61] ?
[out] 1920

[in] Quick one: Cmax of COc1nc(C2=CC3CN(C(=O)c4c(F)cccc4-n4nccn4)CC3C2)nc(C)c1F (centres unmarked) [Compound 8] ?
[out] 3220

[in] Quick one: Cmax of CCOc1ccc(C(=O)N2CC3C=C(c4nc(C)cnc4OC)CC3C2)c(-n2nccn2)c1 (centres unmarked) [Compound 45] ?
[out] 2520

[in] Quick one: Cmax of COc1ccc(C(=O)N2CC3C=C(c4nc(C)c(F)c(C)n4)CC3C2)c(-n2nccn2)c1 (centres unmarked) [Compound 5] ?
[out] 1600
